Origin of measurements: the supplement of paper PMC10567573

B1: C8orf76 (parent)
chain: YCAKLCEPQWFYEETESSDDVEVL

Variants of: B1
assay_info: protein stability index of a GFP-peptide fusion (GPS, HEK-293T) (PSI 1-6); higher = more stable;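 further: lentivirally expressed fusions sorted by FACS into six bins by GFP to DsRed ratio, PSI derived from sequencing read proportions per bin multiplied by bin number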
applied_conditions: c terminus: a fixed tail appended
protein stability index values, listed per item
Form: value (number only, do not type unit).

YCAKSCEPQWFYEETESSDDVEVL; 2.04
YCAKLCEPQWFYEEYESSDDVEVL; 1.96
YCAKLCEPQWFYEETRSSDDVEVL; 1.77

**Q:** Look up and report measured protein stability index for this entry: YCAKLCEYQWFYEETESSDDVEVL
**A:** 1.76

**Q:** Look up and report measured protein stability index for this entry: YCAKLCEPQHFYEETESSDDVEVL
**A:** 3.52

**Q:** Look up and report measured protein stability index for this entry: YCAKLCEPQWFYEETYSSDDVEVL
**A:** 2.59

**Q:** Look up and report measured protein stability index for this entry: YCAKDCEPQWFYEETESSDDVEVL
**A:** 3.42

**Q:** Look up and report measured protein stability index for this entry: YCAKLCEPQWFMEETESSDDVEVL
**A:** 1.97

**Q:** Look up and report measured protein stability index for this entry: YCAKLCEPQWFYEETESSDDVEVM
**A:** 2.65

**Q:** Look up and report measured protein stability index for this entry: YCAKLIEPQWFYEETESSDDVEVL
**A:** 2.88

**Q:** Look up and report measured protein stability index for this entry: YCAKLCEPQWFCEETESSDDVEVL
**A:** 1.98

**Q:** Look up and report measured protein stability index for this entry: YCAKLCEPQWFYEETESSDDVGVL
**A:** 2.31

**Q:** Look up and report measured protein stability index for this entry: YCAKLCEPQWFYMETESSDDVEVL
**A:** 2.13

**Q:** Look up and report measured protein stability index for this entry: YCAKLCHPQWFYEETESSDDVEVL
**A:** 2.57

**Q:** Look up and report measured protein stability index for this entry: YCAKLCEPQWFYEETESSDDAEVL
**A:** 2.3

**Q:** Look up and report measured protein stability index for this entry: YCAKLCEPQWFYEETESSNDVEVL
**A:** 2.26

**Q:** Look up and report measured protein stability index for this entry: YCAKLCEPQWFYEETKSSDDVEVL
**A:** 2.28

**Q:** Look up and report measured protein stability index for this entry: YCAKLCEPQWFYEETESLDDVEVL
**A:** 2.23

**Q:** Look up and report measured protein stability index for this entry: YCAKLCEPQWFYEEKESSDDVEVL
**A:** 2.08

**Q:** Look up and report measured protein stability index for this entry: YCAKLCEPQWFYNETESSDDVEVL
**A:** 1.6

**Q:** Look up and report measured protein stability index for this entry: YRAKLCEPQWFYEETESSDDVEVL
**A:** 4.17
